# system.under.test: human recombinant mGluR5 (Homo sapiens, UniProt P41594)
# Sequence (P41594 21-1212): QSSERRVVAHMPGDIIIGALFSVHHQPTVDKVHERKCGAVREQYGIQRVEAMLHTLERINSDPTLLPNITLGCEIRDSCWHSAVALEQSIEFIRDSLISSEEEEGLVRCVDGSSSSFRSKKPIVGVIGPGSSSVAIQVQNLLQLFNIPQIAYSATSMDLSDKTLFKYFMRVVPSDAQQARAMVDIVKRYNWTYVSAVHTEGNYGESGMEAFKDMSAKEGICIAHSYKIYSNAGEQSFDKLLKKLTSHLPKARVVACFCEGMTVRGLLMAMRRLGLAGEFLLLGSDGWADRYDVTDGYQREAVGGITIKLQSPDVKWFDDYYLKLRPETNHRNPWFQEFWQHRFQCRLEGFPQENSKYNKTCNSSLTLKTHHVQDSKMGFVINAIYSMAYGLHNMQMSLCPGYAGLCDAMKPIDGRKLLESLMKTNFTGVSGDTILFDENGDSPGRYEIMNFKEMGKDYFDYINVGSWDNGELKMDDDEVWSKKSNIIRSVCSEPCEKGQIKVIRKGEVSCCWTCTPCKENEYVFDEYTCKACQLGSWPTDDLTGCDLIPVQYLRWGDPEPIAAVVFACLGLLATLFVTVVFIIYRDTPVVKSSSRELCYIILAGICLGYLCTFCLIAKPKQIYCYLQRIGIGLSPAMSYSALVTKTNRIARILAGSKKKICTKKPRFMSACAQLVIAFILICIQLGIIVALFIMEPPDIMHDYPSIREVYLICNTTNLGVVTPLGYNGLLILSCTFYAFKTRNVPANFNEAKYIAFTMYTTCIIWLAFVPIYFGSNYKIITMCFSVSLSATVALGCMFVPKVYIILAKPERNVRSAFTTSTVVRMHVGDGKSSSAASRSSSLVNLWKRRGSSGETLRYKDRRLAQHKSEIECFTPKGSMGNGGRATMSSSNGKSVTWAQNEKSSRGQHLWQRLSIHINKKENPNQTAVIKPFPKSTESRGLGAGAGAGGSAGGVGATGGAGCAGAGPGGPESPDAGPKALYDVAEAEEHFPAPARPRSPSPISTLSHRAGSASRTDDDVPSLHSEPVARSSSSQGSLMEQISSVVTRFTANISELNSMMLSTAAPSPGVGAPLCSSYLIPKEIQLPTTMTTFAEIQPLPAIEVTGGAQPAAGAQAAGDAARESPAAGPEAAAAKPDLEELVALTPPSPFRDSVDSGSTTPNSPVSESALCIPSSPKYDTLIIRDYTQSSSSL
# method.description: positive modulation of mGluR5, calcium based FLIPR assay
# experimental.parameters: HEK 293 cell line expressing human recombinant mGluR5; EC50 of the modulation from peak Ca fluorescence signal after glutamate at approx. 5% basal stimulation
quantity.kind: EC50 (nM)
Just the number please, in nM, no unit attached.

Entry under test: CCc1cc(-c2ccc(F)c(C)c2)nn1CC(=O)N1CCC(c2ncc(C)o2)CC1 [Example 7.02.207] . Its EC50 was 70

Entry under test: Cc1nc(N2CCN(C(=O)Cn3nc(-c4ccc(F)c(C)n4)cc3-c3ccccc3)CC2)no1 [Example 7.02.174] . Its EC50 was 39

Entry under test: Cc1cc(-c2cc(-c3ccccc3)n(CC(=O)N3CCc4ncccc4C3)n2)ccc1F [Example 7.01.078] . Its EC50 was 78

Entry under test: Cc1nc2c(o1)CN(C(=O)Cn1nc(-c3ccc(F)c(C)n3)cc1-c1ccccc1)C2 [Example 7.02.173] . Its EC50 was 38

Entry under test: CCc1cc(-c2ccc(F)c(C)c2)nn1CC(=O)N1CCc2nc(OC)sc2CC1 [Example 7.01.054] . Its EC50 was 53

All figures here come from patent US8741892B2.
